- Test system: JVM-3;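 also: growth inhibition of human JVM-3 cells, read out with a cell viability assay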
- test_summary: cells
- Type: functional, cell-based, Homo sapiens
- assay_conditions: Homo sapiens, JVM-3
- Description: SANGER: Inhibition of human JVM-3 cell growth in a cell viability assay.

- compound: "CC(C)C[C@H](NC(=O)[C@H](Cc1ccccc1)NC(=O)c1cnccn1)B(O)O [BORTEZOMIB]"
  IC50: "13 nM"
- compound: "OC[C@H](Cc1ccccc1)Nc1nc(Oc2ccc3c(c2)CCC3)nc2c1ncn2Cc1ccc(-c2ccccc2)cc1"
  IC50: "> 10200 nM"
- compound: "C[C@@H](Oc1cc(-c2cnn(C3CCNCC3)c2)cnc1N)c1c(Cl)ccc(F)c1Cl [CRIZOTINIB]"
  IC50: "> 2000 nM"
- compound: "NC(=O)c1ccc(N(C(N)=O)c2c(F)cccc2F)nc1-c1ccc(F)cc1F [VX-702]"
  IC50: "> 2000 nM"
- compound: "C/C(=C\\c1csc(C)n1)[C@@H]1C[C@@H]2O[C@]2(C)CCC[C@H](C)[C@H](O)[C@@H](C)C(=O)C(C)(C)[C@@H](O)CC(=O)O1 [PATUPILONE]"
  IC50: "> 32 nM"
- compound: "COc1ccc(-c2cc3nccn3c(Nc3ncccc3C(N)=O)n2)cc1OC"
  IC50: "> 8000 nM"
- compound: "O=C(NCCCNc1nc(Nc2cccc(NC(=O)N3CCCC3)c2)ncc1I)c1cccs1 [BX-795]"
  IC50: "1860 nM"
